Assay: Acute toxicity after single administration, rat
Settings: in vivo, ip

- compound: "Cc1cccnc1NC(=O)C1(c2ccccc2)CCCC1 [MR 549]"
  LD50 / mg/kg: 600

---

Assay: Acute toxicity after single administration, rat
Conditions: in vivo, po, os

- chemical.string: "Cc1cccnc1NC(=O)C1(c2ccccc2)CCCC1"
  LD50 / mg/kg: 1100

---

Assay: Acute toxicity after single administration, mouse
Format: in vivo
Details: in vivo, po; mouse, os, single administration

- chemical.string: "Cc1cccnc1NC(=O)C1(c2ccccc2)CCCC1"
  LD50, mg/kg: 550

Data origin, for the record: patent EP0081756A1
